Cited source: BigSolDB 2.1

conditions: in n-butanol, 273.15 K
RESULT_TYPE: solubility (mole fraction)
Hey, just send me the number, nothing else.

Query string: What value of solubility (mole fraction) has been reported for the following compound? `NS(=O)(=O)c1ccccc1`
Result string: 0.00578

---

conditions: in ethyl formate, 317.65 K
RESULT_TYPE: solubility (mole fraction)
Give a plain numeric answer without units written out.

Query string: Please report the recorded solubility (mole fraction) for `NS(=O)(=O)c1ccccc1` .
Result string: 0.0526

---

conditions: in cyclopentanone, 299.15 K
RESULT_TYPE: solubility (mole fraction)
Give only the figure.

Query string: Data request, read-out solubility (mole fraction), for `NS(=O)(=O)c1ccccc1`
Result string: 0.177
